- protocol_text: In vivo toxicity (LD50, survival, histology)
- Parameters: species or system mice
- test_conditions: mouse, in vivo, ip, mice; read-out: non-toxic up to (dose)
- Method: Female DBA/2J mice, 8 weeks old, were injected intraperitoneally with test compound solutions (X, XI, XII, XIII, […]) to give a final concentration of 30 mg/ml. In those groups receiving both test compound and cysteine, cysteine (1000 mg/kg) was given i.p. both 1 hour prior to and 2 or 3 hours after i.p. injection of the test compound. In Table 3 are the results of these experiments.
Form field: NOAEL (one value per entry).
reported_endpoint: NOAEL

compound="N[C@@H](CCC(=O)O)C(=O)NN(CC(=O)O)c1ccc(O)cc1 [Glu-CHP]" reported_endpoint=NOAEL result="≥ 1000 mg/kg"
compound="NCCCC[C@H](N)C(=O)NN(CC(=O)O)c1ccc(O)cc1 [Lys-CHP]" reported_endpoint=NOAEL result="≥ 1000 mg/kg"
compound="C[C@H](N)C(=O)NN(CC(=O)O)c1ccc(O)cc1 [Ala-CHP]" reported_endpoint=NOAEL result="≥ 1000 mg/kg"

====

- system_tested: Leucine Aminopeptidase (LAP), type III-CP (Sus scrofa, UniProt P28839)
- Sequence (P28839 33-519): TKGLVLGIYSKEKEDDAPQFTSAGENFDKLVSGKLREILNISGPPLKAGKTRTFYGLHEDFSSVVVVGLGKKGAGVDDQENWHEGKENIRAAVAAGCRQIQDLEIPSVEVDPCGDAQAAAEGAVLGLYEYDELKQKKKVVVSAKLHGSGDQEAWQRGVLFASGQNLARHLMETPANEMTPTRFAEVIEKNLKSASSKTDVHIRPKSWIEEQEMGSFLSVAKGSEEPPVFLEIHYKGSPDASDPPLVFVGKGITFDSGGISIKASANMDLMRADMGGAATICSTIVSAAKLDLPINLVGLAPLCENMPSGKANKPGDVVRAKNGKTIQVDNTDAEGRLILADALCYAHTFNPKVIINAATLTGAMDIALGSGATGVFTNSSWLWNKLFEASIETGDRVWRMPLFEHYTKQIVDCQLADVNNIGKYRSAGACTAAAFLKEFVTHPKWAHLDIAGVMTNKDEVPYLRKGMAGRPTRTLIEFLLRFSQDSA
- protocol_text: Leucine aminopeptidase in vitro hydrolysis (TLC)
- Assay type: biochemical
- test_conditions: 1 mg/ml AA-CHP, pH 9.0, up to 12 hours
reported_endpoint: cleavage/hydrolysis by LAP

compound="NCCCC[C@H](N)C(=O)NN(CC(=O)O)c1ccc(O)cc1 [Lys-CHP]" result=not
compound="C[C@H](N)C(=O)NN(CC(=O)O)c1ccc(O)cc1 [Ala-CHP]" result="able to cleave"
compound="N[C@@H](Cc1ccccc1)C(=O)NN(CC(=O)O)c1ccc(O)cc1 [Phe-CHP]" result="able to cleave"
compound="N[C@@H](CCC(=O)O)C(=O)NN(CC(=O)O)c1ccc(O)cc1 [Glu-CHP]" result=not
compound="CC(C)C[C@H](NC(=O)OC(C)(C)C)C(=O)NN(CC(=O)O)c1ccc(O)cc1 [Boc-Leu-CHP]" result=not
compound="CCOC(=O)CN(NC(=O)[C@@H](N)CC(C)C)c1ccc(O)cc1 [Leu-CHP-OEt]" result="able to cleave"

====

- System: Female DBA/2J mice
- protocol_text: In vivo toxicity (LD50, survival, histology)
- test_conditions: 1000 mg/kg i.p.
Recorded measurements of survivors/total, one per entry
reported_endpoint: survivors/total

sample_smiles=CC(C)C[C@H](N)C(=O)NN(CC(=O)O)c1ccc(O)cc1 reported_endpoint=survivors/total result=0/9
sample_smiles=NCCCC[C@H](N)C(=O)NN(CC(=O)O)c1ccc(O)cc1 reported_endpoint=survivors/total result=6/6
sample_smiles=N[C@@H](CCC(=O)O)C(=O)NN(CC(=O)O)c1ccc(O)cc1 reported_endpoint=survivors/total result=6/6
sample_smiles=C[C@H](N)C(=O)NN(CC(=O)O)c1ccc(O)cc1 reported_endpoint=survivors/total result=6/6

====

- Test system: Female DBA/2J mice
- protocol_text: In vivo toxicity (LD50, survival, histology)
- test_conditions: 600 mg/kg i.p.
- Description: Female DBA/2J mice, 8 weeks old, were injected intraperitoneally with test compound solutions (X, XI, XII, XIII, […]) to give a final concentration of 30 mg/ml. In those groups receiving both test compound and cysteine, cysteine (1000 mg/kg) was given i.p. both 1 hour prior to and 2 or 3 hours after i.p. injection of the test compound. In Table 3 are the results of these experiments.
Reported survivors/total values are given for each entry in this list.
reported_endpoint: survivors/total

sample_smiles=N[C@@H](Cc1ccccc1)C(=O)NN(CC(=O)O)c1ccc(O)cc1 result=1/7
sample_smiles=CC(C)C[C@H](N)C(=O)NN(CC(=O)O)c1ccc(O)cc1 result=5/5
sample_smiles=N[C@@H](CCC(=O)O)C(=O)NN(CC(=O)O)c1ccc(O)cc1 result=5/5
sample_smiles=NCCCC[C@H](N)C(=O)NN(CC(=O)O)c1ccc(O)cc1 result=5/5
sample_smiles=C[C@H](N)C(=O)NN(CC(=O)O)c1ccc(O)cc1 result=5/5
